Test: Pharmacokinetic study in rats after oral and intravenous administration (UHPLC-MS/MS, non-compartment analysis)
Format: in vivo, Sprague Dawley (SD) rats
Settings: male, Sprague Dawley, rat, plasma, oral, 180 mg/kg, PO 180.0 mg/kg versus IV 18.0 mg/kg, read-out: F (%), absolute (oral) bioavailability
propertyLabel: bioavailability

Indicate its recorded bioavailability; the molecule in question is C=C(C(=O)NCc1cc(-c2ccc(F)cc2)no1)C1CCC(C)C2CC(=O)C(C)=C2C1 (stereo not shown)
~1.6%

----------
Assay: Pharmacokinetic study in rats after oral and intravenous administration (UHPLC-MS/MS, non-compartment analysis)
Format: in vivo, Sprague Dawley (SD) rats
Settings: male, Sprague Dawley, rat, plasma, IV 18.0 mg/kg, n = 6, mean ± SD
propertyLabel: half-life (min)
Numeric answer only, unit min assumed.

Input C=C(C(=O)NCc1cc(-c2ccc(F)cc2)no1)C1CCC(C)C2CC(=O)C(C)=C2C1 (stereo not shown) , output reported half-life.
80.4

----------
Test: Pharmacokinetic study in rats after oral and intravenous administration (UHPLC-MS/MS, non-compartment analysis)
Assay type: in vivo, Sprague Dawley (SD) rats
Details: male, Sprague Dawley, rat, plasma, IV 18.0 mg/kg, n = 6, mean ± SD, read-out: MRT0–inf
propertyLabel: MRT inf
Answer shape: numeric part, then the unit.

Item C=C(C(=O)NCc1cc(-c2ccc(F)cc2)no1)C1CCC(C)C2CC(=O)C(C)=C2C1 (stereo not shown) : provide MRT inf
47.4 min

----------
Experiment: Pharmacokinetic study in rats after oral and intravenous administration (UHPLC-MS/MS, non-compartment analysis)
Assay type: in vivo, Sprague Dawley (SD) rats
Conditions: male, Sprague Dawley, rat, plasma, IV 18.0 mg/kg, n = 6, mean ± SD, read-out: MRT0–t
propertyLabel: MRT last (min)
Report the figure in min without appending any unit label.

Check the records and state MRT last for C=C(C(=O)NCc1cc(-c2ccc(F)cc2)no1)C1CCC(C)C2CC(=O)C(C)=C2C1 (stereo not shown)
37.8

----------
Assay: Pharmacokinetic study in rats after oral and intravenous administration (UHPLC-MS/MS, non-compartment analysis)
Type: in vivo, Sprague Dawley (SD) rats
Conditions: male, Sprague Dawley, rat, plasma, PO 180.0 mg/kg, n = 6, mean ± SD
propertyLabel: Tmax (h)
Return type: number; implicit unit h.

Provide only the value of recorded Tmax for C=C(C(=O)NCc1cc(-c2ccc(F)cc2)no1)C1CCC(C)C2CC(=O)C(C)=C2C1 (stereo not shown)
1.21

----------
Assay: Pharmacokinetic study in rats after oral and intravenous administration (UHPLC-MS/MS, non-compartment analysis)
Assay type: in vivo, Sprague Dawley (SD) rats
Conditions: male, Sprague Dawley, rat, plasma, PO 180.0 mg/kg, n = 6, mean ± SD, read-out: MRT0–inf
propertyLabel: MRT inf (h)
Answer with a number only, understood to be in h.

Item C=C(C(=O)NCc1cc(-c2ccc(F)cc2)no1)C1CCC(C)C2CC(=O)C(C)=C2C1 (stereo not shown) : provide MRT inf
6.69

----------
Assay: Pharmacokinetic study in rats after oral and intravenous administration (UHPLC-MS/MS, non-compartment analysis)
Format: in vivo, Sprague Dawley (SD) rats
Conditions: male, Sprague-Dawley, rat, plasma, IV 18.0 mg/kg, n = 6, mean ± SD
propertyLabel: Cmax (ng/mL)
The answer is to be given in ng/mL; state only the numeric part.

Supply reported Cmax belonging to this compound: C=C(C(=O)NCc1cc(-c2ccc(F)cc2)no1)C1CCC(C)C2CC(=O)C(C)=C2C1 (stereo not shown) [CAM106]
2310
